- EXPERIMENT_DESCRIPTION: solvent given as SMILES
- ASSAY_SETUP: in CN(C)C=O

COMPOUND	emission maximum (nm)
CC(C)(C)c1ccc(-c2sc3c(-c4ccc(C(C)(C)C)cc4)c4n(c3c2-c2ccc(C(C)(C)C)cc2)[B-](F)(F)[N+]2=Cc3c(-c5ccc(C(C)(C)C)cc5)c5sc(-c6ccc(C(C)(C)C)cc6)c(-c6ccc(C(C)(C)C)cc6)c5n3[B-](F)(F)[N+]2=C4)cc1	636
COc1ccc2c(c1)CCc1c-2nc(N)c(C#N)c1-c1ccc(Br)cc1	423
CCCCC1(c2ccccc2)Nc2c(-c3ccc(N(c4ccccc4)c4ccccc4)cc3)ccc(-c3ccc(N(c4ccccc4)c4ccccc4)cc3)c2N=C1c1ccccc1 (stereo not given)	578
COc1cc(N(c2ccc(C=C(C#N)C#N)c(OC)c2)c2ccc(C=C(C#N)C#N)c(OC)c2)ccc1C=C(C#N)C#N	575
CCCCC1(c2ccccc2)Nc2c(-c3ccc(N(C)C)cc3)ccc(-c3ccc(N(C)C)cc3)c2N=C1c1ccccc1 (stereo not given)	596
C1=Cc2nc1c(-c1cccs1)c1ccc([nH]1)c(-c1cccs1)c1nc(c(-c3cccs3)c3ccc([nH]3)c2-c2cccs2)C=C1	665
COCCOCCOCCOc1cc(C=O)c(OCCOCCOCCOC)cc1C=O	464
CN(C)CCN(Cc1c2ccccc2cc2ccccc12)c1ccc([N+](=O)[O-])cc1	389
Nc1ncnc2c1c(-c1ccc3ccccc3c1)nn2[C@H]1C[C@H](O)[C@@H](CO)O1	361
O=S(=O)(c1ccccc1)c1ccc(-c2ccc3c4ccc(-c5ccc(S(=O)(=O)c6ccccc6)cc5)cc4n(-c4ccccc4)c3c2)cc1	437
O=c1c2ccccc2n2c3ccccc3c(=O)c3cc(-c4ccccc4)cc1c32	477
Cc1nc2cccc(-c3nc4ccccc4o3)c2c(=O)[nH]1	398
CN(C)c1ccc(/C=C/c2cc[n+](CCCCC[n+]3ccc(/C=C/c4ccc(N(C)C)cc4)cc3)cc2)cc1	607
CCc1ccc(-c2nc(-c3ccc(-n4c5ccccc5c5ccccc54)cc3)cc(-c3ccc(-n4c5ccccc5c5ccccc54)cc3)n2)cc1	482
O=S1(=O)c2ccc(-c3ccc(-n4c5ccccc5c5ccccc54)cc3)cc2C2(c3ccccc3-c3ccccc32)c2cc(-c3ccc(-n4c5ccccc5c5ccccc54)cc3)ccc21	455.8

###

Consider the following molecules and their measured emission maximum readings.
- EXPERIMENT_DESCRIPTION: solvent given as SMILES
- ASSAY_SETUP: in CC(C)(C)O
ATTRIBUTE_MEASURED: emission maximum (nm)

COc1ccc(/C=N/c2cc(C(C)C)c(O)cc2C)cc1 411
Cc1cc(O)c(C(C)C)cc1/N=C/c1ccc(C(F)(F)F)cc1 431
COCCOCCOCCOc1cc(C=O)c(OCCOCCOCCOC)cc1C=O 478
Cc1ccc(C(=O)/C=C2\C(=O)Nc3ccccc32)cc1C 400
Fc1ccc(-c2nc3n(c2-c2ccncc2)CCS3)cc1 420
Cc1c2ccncc2c(C)c2c1[nH]c1ccccc12 420
COCCOc1cc(C=O)c(OCCOC)cc1C=O 478

###

- EXPERIMENT_DESCRIPTION: solvent given as SMILES
- ASSAY_SETUP: in CC#N
Please assign NOT MET whenever emission maximum is at or above 600 nm, and MET whenever it is below.

CC(C)(C)c1ccc(C2=C(c3ccc(C(C)(C)C)cc3)C(c3ccc(C(C)(C)C)cc3)=[N+]3C2=C(c2ccccc2)c2c(-c4ccc(C(C)(C)C)cc4)c(-c4ccc(C(C)(C)C)cc4)c(-c4ccc(C(C)(C)C)cc4)n2[B-]3(F)F)cc1 NOT MET
COc1ccc2c(c1)N(c1ccccc1-c1ccccc1)c1cc3c(cc1=N2)Oc1c(cc(C(C)(C)C)cc1C(C)(C)C)N=3 NOT MET
CCN(CC)c1ccc2cc(/C=C/c3cccc[n+]3CCCS(=O)(=O)[O-])c(=O)oc2c1 NOT MET
CN(C)c1ccc(C#Cc2nc(-c3ccccc3)nc3ccccc23)cc1 MET
COc1cc(N(c2ccc(C=C(C#N)C#N)c(OC)c2)c2ccc(C=C(C#N)C#N)c(OC)c2)ccc1C=C(C#N)C#N MET
CCCCCCCCN1c2ccc(C#Cc3ccc(F)cc3)cc2Sc2cc(C=O)ccc21 MET
COc1ccccc1C1=C2C(C)=CC(C)=[N+]2[B-](F)(F)n2c(C)cc(C)c21 MET
CC(=O)Nc1ccc(/C=C2\OC(=O)c3cc(N)ccc32)cc1 MET

###

- EXPERIMENT_DESCRIPTION: solvent given as SMILES
- ASSAY_SETUP: in CC#N
emission maximum for assorted compounds
ATTRIBUTE_MEASURED: emission maximum (nm)

COMPOUND	ATTRIBUTE_MEASURED	TEST_RESULT
COc1ccc(-c2nc(-c3cc(Cl)sc3C)c(-c3cc(Cl)sc3C)[nH]2)cc1	emission maximum	489
O=C1/C(=C\c2ccc(N(c3ccccc3)c3ccccc3)cc2)S(=O)(=O)c2ccccc21	emission maximum	518
O=c1[nH]c(=O)c2nc3ccccc3nc2[nH]1	emission maximum	432
CN(C)c1ccc(/C=C/c2nc3c(ccc4ccccc43)s2)cc1	emission maximum	524
CC(C)(C)c1ccc2c(c1)c1cc(C(C)(C)C)ccc1n2-c1ccc(C#Cc2ccc(C#Cc3ccc(-n4c5ccc(C(C)(C)C)cc5c5cc(C(C)(C)C)ccc54)cc3)cc2)cc1	emission maximum	470
COc1ccc(/C=C/c2cc(/C=C/c3ccc(OC)cc3)nc(/C=C/c3ccc(N(c4ccccc4)c4ccccc4)cc3)n2)cc1	emission maximum	627
Cc1cccc(C)c1Nc1ccc(/C=C/c2ccccc2)cc1	emission maximum	424
CC(=O)c1ccc(-c2nc3ccc(N(C)C)c(Br)c3s2)cc1	emission maximum	568
CC1=CC(c2ccc3cc(N(C)C)ccc3c2)=[O+][B-](F)(F)O1	emission maximum	611
O=c1oc2ccccc2c(O)c1C(CC(O)c1ccc(-c2ccc(Br)cc2)cc1)c1ccccc1 (stereo not drawn)	emission maximum	403
CNc1ncc2nc(C(=O)OC)n(Cc3ccccc3)c2n1	emission maximum	413
C(=C\c1c2ccccc2cc2ccccc12)/c1cccc2ccccc12	emission maximum	503
CC(C)(C)c1ccc(C2=C(Br)C3=C(c4ccccc4)c4c(Br)c(-c5ccc(C(C)(C)C)cc5)c(-c5ccc(C(C)(C)C)cc5)n4[B-](F)(F)[N+]3=C2c2ccc(C(C)(C)C)cc2)cc1	emission maximum	613
CC(C)(C)c1ccc2c(c1)c1cc(C(C)(C)C)ccc1n2-c1ccc(C#Cc2cccc(C#Cc3ccc(-n4c5ccc(C(C)(C)C)cc5c5cc(C(C)(C)C)ccc54)cc3)c2)cc1	emission maximum	435
C[n+]1ccc(-c2cc[n+](C)cc2)cc1	emission maximum	353
COc1ccc(-c2nc3c([nH]2)=C2C=C(Cl)S[C@@]2(C)[C@]2(C)SC(Cl)=CC=32)cc1	emission maximum	378
CC1=CC(C)=[N+]2C1=C(c1c3ccccc3cc3ccccc13)c1c(C)cc(C)n1[B-]2(F)F	emission maximum	512
Cc1ccc(/C=C/c2ccccc2-[n+]2noc([O-])c2C)cc1	emission maximum	450

###

- EXPERIMENT_DESCRIPTION: solvent given as SMILES
- ASSAY_SETUP: in Cc1ccccc1
ATTRIBUTE_MEASURED: emission maximum

Cc1ccc2c(c1)C(c1ccccc1)(c1ccccc1)c1cc(C)ccc1N2c1cc(C(C)C)c(B2c3ccccc3Sc3ccccc32)c(C(C)C)c1 487 nm
CCCCCCOc1ccc(C#Cc2ccc(-c3ccc(-c4ccc(C#Cc5ccc(OCCCCCC)c(OCCCCCC)c5)s4)c4nsnc34)s2)cc1OCCCCCC 620 nm
c1ccc(N2c3ccc4ccccc4c3-c3c4ccccc4nc[n+]3[B-]2(c2ccccc2)c2ccccc2)cc1 654 nm
CCN(CC)c1ccc(-c2cc3c(s2)c(C(=O)OC)cc(=O)n3C)cc1 504 nm

###

- EXPERIMENT_DESCRIPTION: solvent given as SMILES
- ASSAY_SETUP: in CCCO
Mark satisfied for emission maximum under 500 nm, not satisfied if at or over.

COMPOUND	CLASS_LABEL
CN(C)c1ccc(/C=C/C(=O)O)cc1	satisfied
CN(C)c1ccc(/C=C/c2cc[n+](Cc3cc(C[n+]4ccc(/C=C/c5ccc(N(C)C)cc5)cc4)cc(C[n+]4ccc(/C=C/c5ccc(N(C)C)cc5)cc4)c3)cc2)cc1	not satisfied
CC(=O)Nc1ccc(/C=C2\OC(=O)c3cc(N)ccc32)cc1	satisfied
COc1ccc2c(=O)c3c([nH]c2c1)-c1cc(Cl)ccc1NC3(C)C	not satisfied
CN(C)c1ccc(/C=C2\CCCC2=O)cc1	satisfied
O=Cc1cc(O)ccc1O	satisfied
CCC[n+]1ccc(/C=C/c2ccc(N(C)C)cc2)cc1	not satisfied
Cc1n[nH]c2c1C(c1ccc([N+](=O)[O-])cc1)C(C#N)=C(N)O2 (stereo not drawn)	satisfied
COCCOCCOCCOc1cc(C=O)c(OCCOCCOCCOC)cc1C=O	satisfied
CCCCCCCCCCCCCCCCN(CCCCCCCCCCCCCCCC)c1ccc(/C=C/c2cc[n+](Cc3cc(C[n+]4ccc(/C=C/c5ccc(N(CCCCCCCCCCCCCCCC)CCCCCCCCCCCCCCCC)cc5)cc4)cc(C[n+]4ccc(/C=C/c5ccc(N(CCCCCCCCCCCCCCCC)CCCCCCCCCCCCCCCC)cc5)cc4)c3)cc2)cc1	not satisfied
CC1(C)Nc2ccccc2-c2[nH]c3ccccc3c(=O)c21	not satisfied
COCCOc1cc(C=O)c(OCCOC)cc1C=O	satisfied
COC1=C/C(=C\C=C2C=CN(Cc3ccc(Br)cc3)C=C2)C=CC1=O	not satisfied
